testMethodNotes: Clearance in rat at 1000 mg/kg, po administered via gavage by HPLC/MS analysis
Format: ADME, organism-based
experimentalSetup: in vivo
recordedMetric: CL/F (mL/min/kg)
# number only, unit mL/min/kg dropped from output

In plain terms, O=C(O)c1c(F)ccc2c1OB(O)[C@@H]1C[C@H]21 [XERUBORBACTAM] has a documented CL/F of 34.2

====

Tested on: Pseudomonas aeruginosa
testMethodNotes: Inhibition of Pseudomonas aeruginosa PAM 1032 KPC-2 assessed as minimum potentiating concentration of compound needed to reduce the MIC of biapenem by 64 fold
recordedMetric: Activity (µg/mL)
# number only, unit µg/mL dropped from output

Query O=C(CSC1CNC1)N[C@H]1Cc2ccc(F)c(C(=O)O)c2OB1O on Pseudomonas aeruginosa; Activity returned: 5

Query COc1ccc2c(c1C(=O)O)OB(O)[C@@H](NC(=O)CSC1CNC1)C2 on Pseudomonas aeruginosa; Activity returned: 5

Query O=C(Cc1cccs1)N[C@H]1Cc2ccc(F)c(C(=O)O)c2OB1O on Pseudomonas aeruginosa; Activity returned: 40

Query COc1ccc2c(c1C(=O)O)OB(O)[C@@H](NC(=O)Cc1cccs1)C2 on Pseudomonas aeruginosa; Activity returned: 40

Query CSCC(=O)N[C@H]1Cc2ccc(O)c(C(=O)O)c2OB1O on Pseudomonas aeruginosa; Activity returned: 40

Query O=C(CSC1CNC1)N[C@H]1Cc2cccc(C(=O)O)c2OB1O on Pseudomonas aeruginosa; Activity returned: 2.5

====

testMethodNotes: AUC in rat at 30 mg/kg, po administered via gavage by HPLC/MS analysis
Type: ADME, organism-based
experimentalSetup: in vivo
recordedMetric: AUC (ng·h/mL)
# number only, unit ng·h/mL dropped from output

In plain terms, O=C(O)c1c(F)ccc2c1OB(O)[C@@H]1C[C@H]21 has a documented AUC of 34000

====

Test system: Enterobacter cloacae
testMethodNotes: Inhibition of Enterobacter cloacae ECL1002 AmpC assessed as minimum concentration of compound needed to reduce the MIC of aztreonam to 4 ug/ml
recordedMetric: MEC

Check out these entries, answers already filled in.
>>> print(df.to_string())
                                   molecule  observedmeasurement
0  COc1ccc2c(c1C(=O)O)OB(O)[C@@H](NC(=O)CSC)C2            0.6 µg/mL
1   O=C(O)c1cccc2c1OB(O)[C@@H](Sc1cccnc1)C2           > 20 µg/mL
2           COc1ccc2c(c1C(=O)O)OB(O)CC21CC1            2.5 µg/mL
3  COc1ccc2c(c1C(=O)O)OB(O)C1CCC21 (configuration not stated)             10 µg/mL
4  CSCC(=O)N[C@H]1Cc2ccc(SCC(N)=O)c(C(=O)O)c2OB1O            2.5 µg/mL
5               COc1ccc2c(c1C(=O)O)OB(O)CC2            0.3 µg/mL

In plain terms, CSCC(=O)N[C@H]1Cc2ccc(OCCO)c(C(=O)O)c2OB1O has a documented MEC of 5 µg/mL

In plain terms, COc1ccc2c(c1C(=O)O)OB(O)[C@@H]1C[C@H]21 has a documented MEC of 0.3 µg/mL

In plain terms, COc1ccc2c(c1C(=O)O)OB(O)C(F)=C2 has a documented MEC of 0.3 µg/mL

In plain terms, CSCC(=O)N[C@H]1Cc2ccc(SCCO)c(C(=O)O)c2OB1O has a documented MEC of 5 µg/mL

In plain terms, O=C(O)c1cccc2c1OB(O)[C@@H]1C[C@H]21 has a documented MEC of 0.3 µg/mL

In plain terms, Nc1nnc(S[C@H]2Cc3ccc(OCC(F)F)c(C(=O)O)c3OB2O)s1 has a documented MEC of > 20 µg/mL

In plain terms, O=C(O)c1c(OC2COC2)ccc2c1OB(O)[C@@H](Sc1nncs1)C2 has a documented MEC of > 20 µg/mL

In plain terms, COc1ccc2c(c1C(=O)O)OB(O)C(CO)C2 (configuration not stated) has a documented MEC of 20 µg/mL

In plain terms, O=C(O)c1c(F)ccc2c1OB(O)[C@@H]1C[C@H]21 [XERUBORBACTAM] has a documented MEC of 0.6 µg/mL

In plain terms, Nc1nnc(S[C@H]2Cc3cccc(C(=O)O)c3OB2O)s1 has a documented MEC of > 10 µg/mL

In plain terms, COc1ccc2c(c1C(=O)O)OB(O)C1C2C1(F)F (configuration not stated) has a documented MEC of 10 µg/mL

====

testMethodNotes: Oral bioavailability in rat at 30 mg/kg in fasted state by HPLC/MS analysis
Format: ADME, organism-based
experimentalSetup: in vivo
recordedMetric: bioavailability (%)
# number only, unit % dropped from output

In plain terms, O=C(O)c1c(F)ccc2c1OB(O)[C@@H]1C[C@H]21 [XERUBORBACTAM] has a documented bioavailability of 43

====

Tested on: Enterobacter cloacae
testMethodNotes: Inhibition of Enterobacter cloacae ECL1002 AmpC assessed as minimum concentration of compound needed to reduce the MIC of aztreonam to 4 ug/ml
Recorded MEC by entry
# number only, unit µg/mL dropped from output

Check out these entries, answers already filled in.
>>> print(df.to_string())
                                   compound    targetortestsystem  observedmeasurement
0  CSCC(=O)N[C@H]1Cc2ccc(SC)c(C(=O)O)c2OB1O  Enterobacter cloacae                 1.25
1      Nn1cnnc1S[C@H]1Cc2cccc(C(=O)O)c2OB1O  Enterobacter cloacae                    5
2  COc1ccc2c(c1C(=O)O)OB(O)C1(CO)CC21 (configuration not stated)  Enterobacter cloacae                  2.5
3  CSCC(=O)N[C@H]1Cc2ccc(Sc3nnc(N)s3)c(C(=O)O)c2OB1O  Enterobacter cloacae                  2.5
4                   O=C(O)c1cccc2c1OB(O)CC2  Enterobacter cloacae                    5

In plain terms, CO[C@H]1Cc2cccc(C(=O)O)c2OB1O has a documented MEC of 2.5

====

testMethodNotes: Oral bioavailability in rat at 100 mg/kg in fasted condition by HPLC/MS analysis
Format: ADME, organism-based
experimentalSetup: in vivo
recordedMetric: bioavailability

In plain terms, O=C(O)c1c(F)ccc2c1OB(O)[C@@H]1C[C@H]21 [XERUBORBACTAM] has a documented bioavailability of 53%

====

Test system: Escherichia coli
testMethodNotes: Inhibition of Escherichia coli KP308 SHV-5 assessed as minimum concentration of compound required to reduce the MIC of aztreonam to 4 ug/ml
Is MEC at least 5 µg/mL? Then 1. If not, -1.

// known answers, use as guide
In [3]: df
Out[3]:
                                 smilestext  label
0       O=C(O)c1nccc2c1OB(O)[C@H]1C[C@@H]21      1
1        N=C(N)S[C@H]1Cc2cccc(C(=O)O)c2OB1O      1
2  Nc1nnc(S[C@H]2Cc3cccc(C(=O)O)c3OB2O)[nH]1      1
3  O=C(O)c1cccc2c1OB(O)[C@@H](Sc1nnc[nH]1)C2      1
4             CO[C@H]1Cc2cccc(C(=O)O)c2OB1O     -1
5  CSCCOc1ccc2c(c1C(=O)O)OB(O)[C@@H](Sc1nncs1)C2      1

Request: Assess whether reported MEC for NC(=O)CCS[C@H]1Cc2cccc(C(=O)O)c2OB1O sits at 5 µg/mL or higher.
Result: 1

Request: Assess whether reported MEC for COc1ccc2c(c1C(=O)O)OB(O)CC21CC1 sits at 5 µg/mL or higher.
Result: -1

Request: Assess whether reported MEC for O=C(O)c1cccc2c1OB(O)[C@@H](Sc1cccnc1)C2 sits at 5 µg/mL or higher.
Result: 1

Request: Assess whether reported MEC for C[C@H]1Cc2cccc(C(=O)O)c2OB1O sits at 5 µg/mL or higher.
Result: 1

====

testMethodNotes: AUC in rat at 300 mg/kg, iv administered as infusion for 0.5 hrs by HPLC/MS analysis
Format: ADME, organism-based
experimentalSetup: in vivo
recordedMetric: AUC at 0.5 h (µg·h/mL)
# number only, unit µg·h/mL dropped from output

In plain terms, O=C(O)c1c(F)ccc2c1OB(O)[C@@H]1C[C@H]21 has a documented AUC at 0.5 h of 608

====

testMethodNotes: Cmax in rat at 30 mg/kg, po administered via gavage by HPLC/MS analysis
Format: ADME, organism-based
Set-up: dose 30 mg/kg, route oral
experimentalSetup: in vivo
recordedMetric: Cmax (ng/mL)
# number only, unit ng/mL dropped from output

In plain terms, O=C(O)c1c(F)ccc2c1OB(O)[C@@H]1C[C@H]21 has a documented Cmax of 8600
